Overview of reported IC50 across a group of compounds:
- Target under test: human IL-17A / human IL-17RA (Homo sapiens (Human), UniProt Q16552)
- Sequence (Q16552 24-155): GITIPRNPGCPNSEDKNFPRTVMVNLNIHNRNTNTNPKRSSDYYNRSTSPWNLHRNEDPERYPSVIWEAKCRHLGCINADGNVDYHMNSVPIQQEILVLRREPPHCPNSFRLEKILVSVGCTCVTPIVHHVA
- Assay: Human IL-17A biochemical assay (HTRF, blocking of IL-17A binding to IL-17RA)
- Study conditions: 0.4 nM IL-17A, 0.3 nM IL-17RA, max compound concentration 10 uM
The response must be a number in nM with no trailing unit.

Cc1nonc1C(=O)N[C@H](C(=O)Nc1ccc2c(c1)CC(C(=O)Nc1ccc(Cl)cc1)(N1C[C@@H](C(C)C)NC1=O)C2)C(C1CC1)C1CC1 (stereo partly drawn) = 416
Cc1nonc1C(=O)N[C@H](C(=O)Nc1ccc2c(c1)CC(C#N)(N1C[C@@H](C(C)C)NC1=O)C2)C(C1CC1)C1CC1 (stereo partly drawn) = 912

Exercise: Name the recorded IC50 for Cc1nonc1C(=O)N[C@H](C(=O)Nc1ccc2c(c1)CC(C(=O)Nc1cccc(Cl)c1)(N1CC3(CC3)CNC1=O)C2)C1CCC(F)(F)CC1 (stereo partly drawn) .
Key: 169

====

- Target under test: human IL-17A / human IL-17RA (Homo sapiens (Human), UniProt Q16552)
- Assay: Human IL-17A biochemical assay (HTRF, blocking of IL-17A binding to IL-17RA)
- Study conditions: 0.4 nM IL-17A, 0.3 nM IL-17RA, max compound concentration 10 uM
Documented pIC50 across a set of compounds
Answer as the number alone; pIC50 is minus log10 of concentration in mol/L.

Check out these entries, answers already filled in.
Cc1nonc1C(=O)N[C@H](C(=O)Nc1ccc2c(c1)CC(C(=O)Nc1cncs1)(N1CC3(CC3)CNC1=O)C2)C1CCC(F)(F)CC1 (stereo partly shown) = 7.47
CNC(=O)C1(N2C[C@@H](C(C)C)NC2=O)Cc2ccc(NC(=O)C(NC(=O)c3ccnn3C)C3CCC4(CC3)CC4)cc2C1 (stereo partly shown) = 7.39
CNC(=O)C1(N2C[C@@H](C(C)C)NC2=O)Cc2ccc(NC(=O)[C@@H](NC(=O)c3nonc3C)C3CCCCC3)cc2C1 (stereo partly shown) = 7.60
Cc1nonc1C(=O)N[C@H](C(=O)Nc1ccc2c(c1)CC(C(=O)Nc1ccccc1F)(N1C[C@@H](C(C)C)NC1=O)C2)C1CCC(F)(F)CC1 (stereo partly shown) = 6.65
CNC(=O)C1(N2CC3(CNC2=O)CC(F)(F)C3)Cc2ccc(NC(=O)[C@@H](NC(=O)c3ccnn3C)C3CCCCC3)cc2C1 (stereo partly shown) = 6.58
Cn1nccc1C(=O)N[C@H](C(=O)Nc1ccc2c(c1)OCC(CN1CC(C(F)(F)F)NC1=O)C2)C1CCCCC1 (stereo partly shown) = 5.81
Cc1nonc1C(=O)N[C@H](C(=O)Nc1ccc2c(c1)OC(C(C)N1C[C@@H](C(F)(F)F)NC1=O)C2)C(C1CC1)C1CC1 (stereo partly shown) = 6.24
CC(C)[C@@H]1CN(C2(C(=O)Nc3ccccc3)Cc3ccc(NC(=O)[C@@H](NC(=O)c4ccnn4C)C4CCCCC4)cc3C2)C(=O)N1 (stereo partly shown) = 7.51

Exercise: Value lookup for pIC50; key = Cc1nocc1C(=O)N[C@H](C(=O)Nc1ccc2c(c1)CC(N1C[C@@H](C(F)(F)F)NC1=O)C2)C(C1CC1)C1CC1 (stereo partly shown)
Key: 6.85

Exercise: // pIC50 lookup, key: CC(C)C1(N2CC3(CC3)CNC2=O)Cc2ccc(NC(=O)[C@@H](NC(=O)c3ccnn3C)C3CCCCC3)cc2C1 (stereo partly shown)
Key: 6.77

Exercise: Requested field: pIC50. Item: CC[C@@H]1CN(C2(C(=O)NC)Cc3cc4nc([C@@H](NC(=O)c5ccnn5C)C5CCCCC5)[nH]c4cc3C2)C(=O)N1
Key: 6.69

Exercise: Please give the measured pIC50 for this compound: CNC(=O)C1(N2C[C@@H](C(C)C)NC2=O)Cc2ccc(NC(=O)[C@@H](NC(=O)c3ccnn3C)C3CCC3)cc2C1 (stereo partly shown)
Key: 5.29

Exercise: Fill in the blank: the reported pIC50 of CNC(=O)C1(N2CC3(CC3)CNC2=O)Cc2ccc(NC(=O)[C@@H](NC(=O)C(F)(F)c3ccc(C#N)n3C)C3CCCCC3)cc2C1 (stereo partly shown) is ____.
Key: 7.16
